- TESTED ON: AKT1 (human) (UniProt P31749)
- Sequence (P31749 whole entry, looked up): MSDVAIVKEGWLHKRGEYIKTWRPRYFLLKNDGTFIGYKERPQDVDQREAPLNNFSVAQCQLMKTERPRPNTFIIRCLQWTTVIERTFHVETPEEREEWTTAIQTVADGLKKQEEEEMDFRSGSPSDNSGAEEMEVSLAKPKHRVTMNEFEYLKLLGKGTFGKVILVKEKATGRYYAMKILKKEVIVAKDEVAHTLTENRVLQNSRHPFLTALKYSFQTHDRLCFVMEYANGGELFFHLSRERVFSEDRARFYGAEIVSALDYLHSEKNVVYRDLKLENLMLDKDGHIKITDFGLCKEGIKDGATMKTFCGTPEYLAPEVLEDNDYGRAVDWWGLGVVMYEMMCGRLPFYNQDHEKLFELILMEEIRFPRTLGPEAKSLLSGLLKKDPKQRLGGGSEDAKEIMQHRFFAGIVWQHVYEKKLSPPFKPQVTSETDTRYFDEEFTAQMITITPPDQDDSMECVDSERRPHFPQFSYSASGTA
- DETAILS: compound 10.0 µM
Here the recorded inhibition is given for each entry.
Respond with the bare value in %.

| MOLECULE | inhibition, % |
| --- | --- |
| COc1cc2c(Nc3ccc(NC(=O)c4ccccc4)cc3)ncnc2cc1OCCCN1CCOCC1 | 9 |

Ask: Look at this compound and give its reported inhibition. Cn1cc(C2=C(c3cn(CCCSC(=N)N)c4ccccc34)C(=O)NC2=O)c2ccccc21
Result: 62

Ask: Look at this compound and give its reported inhibition. Cc1cc2nc3c(=O)[nH]c(=O)nc-3n(C)c2cc1C=O
Result: 24

Ask: Look at this compound and give its reported inhibition. Cn1cc(C2=C(c3ccc(Cl)cc3Cl)C(=O)NC2=O)c2ccccc21
Result: 3

Ask: Look at this compound and give its reported inhibition. Cc1cc(I)ccc1Nc1c(C(=O)NOCC2CC2)cc(F)c(F)c1F
Result: 0

The values you see were collected from the kinase profiling compilation of Christmann-Franck et al. (2016).
